- experimental target: hEP4/Gqs5 (Homo sapiens, UniProt P35408)
- Sequence (P35408 whole entry): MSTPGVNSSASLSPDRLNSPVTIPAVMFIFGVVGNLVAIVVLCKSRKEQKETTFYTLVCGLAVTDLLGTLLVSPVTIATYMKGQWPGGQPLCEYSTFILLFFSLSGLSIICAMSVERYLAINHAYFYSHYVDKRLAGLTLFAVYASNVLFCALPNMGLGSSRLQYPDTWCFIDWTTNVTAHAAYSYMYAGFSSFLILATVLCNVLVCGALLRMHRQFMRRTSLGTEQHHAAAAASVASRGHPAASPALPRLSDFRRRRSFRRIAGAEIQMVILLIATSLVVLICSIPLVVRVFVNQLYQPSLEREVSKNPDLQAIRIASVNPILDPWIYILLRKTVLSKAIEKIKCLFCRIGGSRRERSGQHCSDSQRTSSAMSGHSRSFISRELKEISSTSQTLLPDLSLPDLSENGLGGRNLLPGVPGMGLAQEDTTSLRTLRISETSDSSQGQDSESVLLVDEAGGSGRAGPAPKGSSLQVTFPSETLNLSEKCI
- test details: FLIPR calcium signal, hEP4/Gqs5
- applied conditions: HEK-293 (EBNA) cells, read-out: FUNCTIONAL EC50 HEP4
- Method: […] Cells were excited with an Argon laser at 488 nm, and emission was measured through a 510–570 nm bandwidth emission filter (FLIPR™, Molecular Devices, Sunnyvale, Calif.). […] The peak increase in fluorescence intensity was recorded for each well. […] The peak fluorescence change in each drug-containing well was then expressed relative to the controls. […]
parameter: EC50 (nM)

Examples with their reported EC50 follow.
CC(O)(/C=C/[C@H]1CCC(=O)[C@@H]1SCCCSCC(=O)O)CCc1ccc2ccccc2c1 (single isomer, unassigned) [drawing 33] : 20
COC(=O)CSCCCS[C@H]1C(=O)C[C@@H](CO)[C@@H]1/C=C/C(O)CCc1cc2ccccc2s1 (some centres unmarked) [drawing 29] : 7940
O=C(O)CSCCCS[C@H]1C(=O)CC[C@@H]1/C=C/C(O)CCc1ccc2ccccc2c1 (single isomer, unassigned) [Compound 153] : 0.3
O=C(O)CSCCCS[C@H]1C(=O)CC[C@@H]1/C=C/C(O)Cc1ccc2ccccc2c1 (some centres unmarked) : 0.4

A: O=C(O)CSCCCS[C@H]1C(=O)CC[C@@H]1/C=C/C(O)Cc1ccccc1 (single isomer, unassigned) [drawing 47]
B: O=C(O)CSCCCS[C@H]1C(=O)C[C@@H](CO)[C@@H]1/C=C/C(O)CCc1cc2ccccc2s1 (single isomer, unassigned) [drawing 32]
Request: Please let me know which one, A or B , has a lower measured EC50 value. Identify your pick by its label.
Result: A
